test: yeast display, Sf9 membrane polyspecificity reagent, FACS + sequencing; frameworks hold sequencing errors
property.name: polyreactivity (PSR sort gate)

As a guide, the following entries are already answered.
[
  {
    "chain.sequence": "QVQLVESGGGLVQAGGSLRLSCAASGSIVGYAMGWYRQAPGKERELVAAISSGGSTNYADSVKGRFTISRDNAKNTVYLQMNSLKPEDTAVYYCAKSWRWRANLRGYYWGQGTQVTVSS",
    "polyreactivity (PSR sort gate)": "high polyreactivity"
  },
  {
    "chain.sequence": "QVQLVESGGGLVQAGGSLRLSCAASGFTFIAYAKGWYRQAPGKERELVAAISRRGGSTYYADSVKGRFTISRDNAKNTVYLQMNSLKPEDTAVYYCAKESRKKTDYDYWGQGTQVTVSS",
    "polyreactivity (PSR sort gate)": "high polyreactivity"
  },
  {
    "chain.sequence": "QVQLVESGGGLVQAGGSLRLSCAASGSIFAGNAMGWYRQPPGKERELVASISWRGGSTYYADSVKGRFTISRDNAKKTVYLQMNSLKPEDTAVYYCNADLVLFPLTWPYYYWGQGTQVTVSS",
    "polyreactivity (PSR sort gate)": "low polyreactivity"
  },
  {
    "chain.sequence": "QVQLVESGGGLVQAGGSLRLSCAASGSTFTTNAMGWYRQAPGKERELVAAISWSGTTTYYADSVKGRFTISRDNAKNTVYLQMNSLKPEDTAVYYCAAQVVSGTVAYLDFGYWGQGTQVTVSS",
    "polyreactivity (PSR sort gate)": "low polyreactivity"
  }
]

Now look at this one.
Query: Look up polyreactivity (PSR sort gate): "QVQLVESGGGLVQAGGSLRLSCAASGSTFVSNAMGWYRQAPGKERELVAAISKGDGNTYYADSVKGRFTISRDNAKNTVYLQMNSLKPEDTAVYYCAATYHYYSRWYDYWGQGTQVTVSS"
Reply: high polyreactivity

====

assay: yeast display, Sf9 membrane polyspecificity reagent, FACS + sequencing; frameworks hold sequencing errors
property.name: polyreactivity (PSR sort gate)

As a guide, the following entries are already answered.
[
  {
    "chain.sequence": "QVQLVESGGGLVQAGGSLRLSCAASGRTFHSNAMGWYRQAPGKERELFAAISYSGGSTYYADSVKGRFTISRDNAKNTVYLQMNSLKPEDTAVYYCNAGAVHKKPARDYWGQGTKVTVSS",
    "polyreactivity (PSR sort gate)": "low polyreactivity"
  },
  {
    "chain.sequence": "QVQLVESGGGLDQAGGSLRLSCAASGSTFRFNAMGWYRQAPGKEREFVAAIRFTGGSSYYSDSVKGRFTISRDNAKNTVYLQMNSLKPDDTAVYYCNNADEYSTVEYDYWGQGTLVTVSS",
    "polyreactivity (PSR sort gate)": "low polyreactivity"
  },
  {
    "chain.sequence": "QVQLVESVGDLVQAGGSLRLSCAASGRNFPVYAMGWYRQAPGKERELVAAITFRSGSTYYADSVKGRFTISRDNAKNTVYLQMNSLKPEDTAVYYCAADFSVQYVGYSAIEGYWGQGTQVTVSS",
    "polyreactivity (PSR sort gate)": "high polyreactivity"
  },
  {
    "chain.sequence": "QVQLVESGGGLVQEGGSLRLSCAASGRIFSYNTVMGWYIQAPGKERELVAAITFSSASTYYADSVKGRFTISRDNAKNTVYLQMNSLKPEDTAVYYCAAAIRSQSSKYYYWGQGTQVTVSS",
    "polyreactivity (PSR sort gate)": "low polyreactivity"
  }
]

Now look at this one.
Query: Look up polyreactivity (PSR sort gate): "QVQLVESGGGLVQAGGSLRLSCAASGGIFTGYAMGWYRQAPGKERELVASITISGGRTYYADSVKGRFTISRDNAKNTVYLQINSLKPEDTAVYYCAATIPWYKYRYYYWGQGTQVTVSS"
Reply: high polyreactivity
